test system: HS 578T breast; experiment: NCI-60 one-dose screen, 48 h (100 = growth as untreated, 0 = no growth, -100 = all killed); details: 10 µM unless noted
About 83,000 compounds went through this panel and 20% of them were active in at least one assay; those are over-represented in the sample as a whole.
Record form. Attribute: growth. Fill in for each entry.
Answers are plain numbers, in %.

Reference set (5 entries):
CCCCCCCCCCCCCCCCNc1ccccc1; 108
Nc1nc(Cl)cc(NCc2ccc(CNc3cc(Cl)nc(N)n3)cc2)n1; 100
COc1cc(C(=O)NNC(=O)c2ccccc2O)cc(OC)c1OC; 95.1
O=C1COc2ccccc2C(=O)N1CCCCN1CCCCC1; 102
C=C1C(=O)O[C@H]2[C@H]1CC/C(CNC(=O)/C1=C/CC[C@@]3(C)O[C@H]3[C@H]3OC(=O)C(=C)[C@@H]3CC1)=C\CC[C@@]1(C)O[C@@H]21; 112

// batch mode: one growth value per listed entry
1. NS(=O)(=O)c1ccc(-n2nc(-c3ccc(Cl)cc3)ccc2=O)cc1
2. C=C1C(=O)O[C@H]2[C@H]1CC/C(COC(=O)c1ccc(Cl)nc1)=C\CC[C@@]1(C)O[C@@H]21
3. COc1cc(-c2nc(SCC(=O)Nc3ccc(C(C)=O)cc3)[nH]c(=O)c2C#N)cc(OC)c1OC

1. 88.2
2. 61.2
3. 10.6

Lookup: growth / HS 578T breast / "COc1ccc(-c2nn(-c3cccc(Cl)c3)cc2-c2cc(-c3ccc(Br)cc3)[nH]c(=O)c2C#N)cc1" 33
